Target: Pseudomonas aeruginosa LpxC enzyme (Pseudomonas aeruginosa, UniProt P47205)
Construct: made in house; host or cells: E. coli
Assay: IC50 assay, LpxC enzyme from P. aeruginosa (BioTrove RapidFire mass spectrometry)
Type: biochemical
Conditions: P. aeruginosa LpxC enzyme 0.1 nM, 25° C., 1 hour, pH 8.0; read-out: PA: IC50
pIC50: −log10 of the molar value.
Please mark 1 if the recorded pIC50 is equal to or greater than 8, and 0 if it falls below.

{"columns": ["molecule", "system.under.test", "discrete.label"],
 "data": [
  ["CC(CCn1cc(-c2ccc(C3(C#N)CC3)cc2)cn1)(C(=O)NO)S(C)(=O)=O (centres unmarked)", "Pseudomonas aeruginosa LpxC enzyme (Pseudomonas aeruginosa, UniProt P47205)", 1]
]}

For this molecule, is measured pIC50 8 or higher? CC(CCn1cc(-c2ccc(Cl)cc2)nn1)(C(=O)NO)S(C)(=O)=O (centres unmarked) 1

For this molecule, is measured pIC50 8 or higher? CC(CCn1cc(-c2ccc(C#N)cc2)cn1)(C(=O)NO)S(C)(=O)=O (centres unmarked) 1

For this molecule, is measured pIC50 8 or higher? C[C@@](CCn1cc(C#N)cn1)(C(=O)NO)S(C)(=O)=O 0

For this molecule, is measured pIC50 8 or higher? CC(CCn1cc(-c2ccc3nc(N)sc3c2)cn1)(C(=O)NO)S(C)(=O)=O (centres unmarked) 0

For this molecule, is measured pIC50 8 or higher? C[C@@](CCn1cc(-c2cnc3ccccc3n2)cn1)(C(=O)NO)S(C)(=O)=O 0

For this molecule, is measured pIC50 8 or higher? CC(CCn1cc(-c2ccc(-c3ccno3)cc2)cn1)(C(=O)NO)S(C)(=O)=O (centres unmarked) 1

For this molecule, is measured pIC50 8 or higher? CC(CCn1cc(-c2cccc(OC(F)F)c2)cn1)(C(=O)NO)S(C)(=O)=O (centres unmarked) 1

For this molecule, is measured pIC50 8 or higher? Cc1nccc(-c2ccc(-c3cnn(CCC(C)(C(=O)NO)S(C)(=O)=O)c3)cc2)n1 (centres unmarked) 1

* * *

Molecular target: Pseudomonas aeruginosa LpxC enzyme (Pseudomonas aeruginosa, UniProt P47205)
Construct: made in house; host or cells: E. coli
Assay: IC50 assay, LpxC enzyme from P. aeruginosa (BioTrove RapidFire mass spectrometry)
Type: biochemical
Conditions: P. aeruginosa LpxC enzyme 0.1 nM, 25° C., 1 hour, pH 8.0; read-out: PA: IC50
Experimental: In order to assess the compounds biological activity, selected in-vitro assays were conducted on selected compounds of Formula I. One of the assays measured the compounds ability to disrupt the synthesis of lipopolysaccharide, LPS, which is a component of the outer membrane of Gram-negative bacteria. Disruption of this synthesis is lethal to the bacteria. The assay determined the compound's ability to inhibit LpxC, which is the first enzyme in the biosynthetic pathway for LPS (measured as IC50). […]
As shown below, each of these compounds has a reported log10(IC50) value.
Could you please treat all values as log10 of IC50 in nM?

Use these answered entries as a reference point.
{"columns": ["compound", "number"],
 "data": [
  ["CC(CCn1cc(COc2ccc3ccccc3c2)nn1)(C(=O)NO)S(C)(=O)=O (centres unmarked) [Example 30]", 0.58],
  ["CC(CCn1cc(-c2ccc(-c3csnn3)cc2)cn1)(C(=O)NO)S(C)(=O)=O (centres unmarked) [Example 90]", 0.09],
  ["CC(CCn1cc(-c2ccc3c(c2)CCC3=O)cn1)(C(=O)NO)S(C)(=O)=O (centres unmarked) [Example 62]", -0.12]
]}

Using the record for COc1ccc(-c2cnn(CCC(C)(C(=O)NO)S(C)(=O)=O)c2)cc1OC (centres unmarked) [Example 65] , state its measured log10(IC50). 1.97

Using the record for CC(C)c1ccccc1SCc1cn(CCC(C)(C(=O)NO)S(C)(=O)=O)nn1 (centres unmarked) [Example 31] , state its measured log10(IC50). 2.48

* * *

Molecular target: Pseudomonas aeruginosa LpxC enzyme (Pseudomonas aeruginosa, UniProt P47205)
Construct: made in house; host or cells: E. coli
Sequence (P47205 1-303): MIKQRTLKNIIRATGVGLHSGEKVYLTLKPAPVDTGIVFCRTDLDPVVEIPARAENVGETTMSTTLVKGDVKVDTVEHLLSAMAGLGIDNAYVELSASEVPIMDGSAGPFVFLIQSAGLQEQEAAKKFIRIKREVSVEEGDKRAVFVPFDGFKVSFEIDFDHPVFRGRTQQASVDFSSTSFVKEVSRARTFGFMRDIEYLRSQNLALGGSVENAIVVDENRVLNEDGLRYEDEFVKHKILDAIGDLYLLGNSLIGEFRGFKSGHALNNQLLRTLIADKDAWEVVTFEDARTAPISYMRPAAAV
Assay: IC50 assay, LpxC enzyme from P. aeruginosa (BioTrove RapidFire mass spectrometry)
Type: biochemical
As shown below, each of these molecules has a reported pIC50 value.
By convention, pIC50 is the negative base-10 log of a molar concentration.

{"columns": ["molecule", "system.under.test", "pIC50"],
 "data": [
  ["C[C@@](CCn1cc(-c2ccccc2)nn1)(C(=O)NO)S(C)(=O)=O", "Pseudomonas aeruginosa LpxC enzyme (Pseudomonas aeruginosa, UniProt P47205)", 9.07],
  ["C[C@@](CCn1cc(-c2ccccc2)cn1)(C(=O)NO)S(C)(=O)=O", "Pseudomonas aeruginosa LpxC enzyme (Pseudomonas aeruginosa, UniProt P47205)", 8.79],
  ["C[C@@](CCn1cc(-c2ccc(Cl)c(Cl)c2)nn1)(C(=O)NO)S(C)(=O)=O", "Pseudomonas aeruginosa LpxC enzyme (Pseudomonas aeruginosa, UniProt P47205)", 8.78]
]}

Using the record for Cc1ccc(-c2cn(CCC(C)(C(=O)NO)S(C)(=O)=O)nn2)cc1 (centres unmarked) , state its measured pIC50. 8.86

Using the record for COc1ccc(-c2cn(CC[C@](C)(C(=O)NO)S(C)(=O)=O)nn2)c(Cl)c1 , state its measured pIC50. 8.33

Using the record for C[C@@](CCn1cc(-c2ccc(Cl)c(F)c2)nn1)(C(=O)NO)S(C)(=O)=O , state its measured pIC50. 9.04

Using the record for C[C@@](CCn1cc(-c2cccc(F)c2F)nn1)(C(=O)NO)S(C)(=O)=O , state its measured pIC50. 8.09

Using the record for CC(CCn1cc(-c2ccccc2)cn1)(C(=O)NO)S(C)(=O)=O (centres unmarked) , state its measured pIC50. 8.33

Using the record for C[C@@](CCn1cc(-c2ccc(Cl)cc2F)nn1)(C(=O)NO)S(C)(=O)=O , state its measured pIC50. 9.18

Using the record for C[C@@](CCn1cc(-c2cccc(Cl)c2Cl)nn1)(C(=O)NO)S(C)(=O)=O , state its measured pIC50. 8.71

Using the record for C[C@@](CCn1cc(-c2ccc(F)c(F)c2)nn1)(C(=O)NO)S(C)(=O)=O , state its measured pIC50. 8.73

* * *

Target: Pseudomonas aeruginosa LpxC enzyme (Pseudomonas aeruginosa)
Construct: made in house; host or cells: E. coli
Sequence (P47205 1-303): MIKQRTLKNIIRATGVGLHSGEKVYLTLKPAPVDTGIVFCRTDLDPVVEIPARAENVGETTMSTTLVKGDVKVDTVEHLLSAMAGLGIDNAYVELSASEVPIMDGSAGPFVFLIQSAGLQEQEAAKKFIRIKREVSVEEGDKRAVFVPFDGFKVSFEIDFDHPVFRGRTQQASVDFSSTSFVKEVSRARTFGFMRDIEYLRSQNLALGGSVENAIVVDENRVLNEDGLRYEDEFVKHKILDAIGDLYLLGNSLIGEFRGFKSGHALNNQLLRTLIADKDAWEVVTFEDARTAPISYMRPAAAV
Assay: IC50 assay, LpxC enzyme from P. aeruginosa (BioTrove RapidFire mass spectrometry)
Type: biochemical
Settings: P. aeruginosa LpxC enzyme 0.1 nM, 25° C., 1 hour, pH 8.0; read-out: PA: IC50
As shown below, each of these compounds has a reported pIC50 value.
By convention, pIC50 is the negative base-10 log of a molar concentration.

{"columns": ["compound", "pIC50"],
 "data": [
  ["CC(CCn1cc(-c2ccc3c(c2)C(=O)CCC3)cn1)(C(=O)NO)S(C)(=O)=O (centres unmarked) [Example 75]", 8.14],
  ["CC(CCn1cc(-c2ccc(C#N)c(Cl)c2)cn1)(C(=O)NO)S(C)(=O)=O (centres unmarked) [Example 64]", 9.21],
  ["Cc1cc(-c2cnn(CCC(C)(C(=O)NO)S(C)(=O)=O)c2)ccc1F (centres unmarked) [Example 52]", 8.16]
]}

Now examine the next entry.
Using the record for CC(CCn1cc(-c2cccc(-c3cc[nH]n3)c2)cn1)(C(=O)NO)S(C)(=O)=O (centres unmarked) [Example 71] , state its measured pIC50. 8.29
